# METHOD_NOTES: chemical genetic growth profiling, strain panel (AID 1159580);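 further: tested at 20 µM; growth read once vehicle control cultures reached saturation at 30 °C; 1 = growth at the plate median or of vehicle wells; lower values mean less growth of the strain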
# SETUP_CONDITIONS: S. cerevisiae deletion strains, growth OD, locus YLR268W, strain sec22, active compounds read low
Among all 5,500 compounds or so, about 2,000 (36%) were called active. Roughly 18% stayed inconclusive and do not appear here. This is one part of the list.
VALUE_KIND: normalized growth
# respond with the number and nothing more

Example cases with answers are listed next.
Dear colleague, I am looking for the recorded normalized growth of the following molecule: CC(=O)OC[C@@]1(O)C[C@@]23CCC4c5ccoc5CC[C@]4(C)C2CC[C@@H]1C3 (stereo partly drawn) 0.987

Fill in the blank: the reported normalized growth of COc1ccccc1OCC(O)COC(N)=O (stereo not drawn) is ____. 0.99

Record request: normalized growth value, item C[C@]12[C@H](O)CC3C(CC[C@@H]4C[C@@H](O)CC[C@]34C)[C@@]1(O)CC[C@@H]2C1=CC(=O)OC1 (stereo partly drawn) 1.01

Please give the measured normalized growth for this molecule: "CC[C@H]1OC(=O)[C@H](C)[C@@H](O[C@H]2C[C@@](C)(OC)[C@@H](O)[C@H](C)O2)[C@H](C)[C@@H](O[C@@H]2O[C@H](C)C[C@H](N(C)C)[C@H]2O)[C@](C)(O)C[C@@H](C)/C(=N/OCOCCOC)[C@H](C)[C@@H](O)[C@]1(C)O" 1.03

Which normalized growth is listed for ClC1C(Cl)C(Cl)C(Cl)C(Cl)C1Cl (stereo not drawn) ? 0.949

Name the reported normalized growth value associated with the molecule "CCC[C@@H]1C[C@@H](C(=O)N[C@H]([C@H]2O[C@H](SC)[C@H](O)[C@@H](O)[C@H]2O)[C@H](C)O)N(C)C1" 1.01

Fill in the blank: the reported normalized growth of "CC(C)[C@@H]1CC[C@@H](C)C[C@H]1OC(=O)c1ccccc1" is ____. 0.997

The record that follows has no normalized growth shown yet.
Return reported normalized growth; argument: NC(Cc1ccc(Cl)cc1)C(=O)O (stereo not drawn) 1

----------
# METHOD_NOTES: chemical genetic growth profiling, strain panel (AID 1159580);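 further: tested at 20 µM; growth read once vehicle control cultures reached saturation at 30 °C; 1 = growth at the plate median or of vehicle wells; lower values mean less growth of the strain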
# SETUP_CONDITIONS: S. cerevisiae deletion strains, growth OD, locus YDR052C, strain DBF4, active compounds read low
Hit rate of the full screen: of about 5,500 compounds, about 2,000 (36%) were called active. Not shown: some 18% with an inconclusive outcome. The list shows a part of the results.
Recorded measurements of normalized growth, one per entry
Respond using a number only.

Suppose we examine the molecule "CCOC(=O)c1ccc(N=Cc2cc(Cl)cc(Cl)c2O)cc1" ; what normalized growth value has been reported? 0.95

Continuing:
So what's the measured normalized growth for this one? "O=[N+]([O-])c1ccc(Sc2ccccc2)c([N+](=O)[O-])c1" 0.913

Item "COc1ccc(Oc2ccc([N+](=O)[O-])cc2C(=O)O/N=C(/N)c2ccc(C(F)(F)F)cc2)cc1" has what recorded normalized growth? 1

# get_value(readout='normalized growth', item= "CC(=O)c1ccc(Sc2ccccc2)c([N+](=O)[O-])c1" ) 0.898

----------
Measured normalized growth, listed per entry for reference.
# METHOD_NOTES: chemical genetic growth profiling, strain panel (AID 1159580);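 further: tested at 20 µM; growth read once vehicle control cultures reached saturation at 30 °C; 1 = growth at the plate median or of vehicle wells; lower values mean less growth of the strain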
# SETUP_CONDITIONS: S. cerevisiae deletion strains, growth OD, locus YJL095W, strain BCK1 (second series), active compounds read low
Screen size: about 5,500 compounds; about 2,000 (36%) were called active. About 18% were inconclusive and are not listed. The list shows a part of the results.
Reply briefly: the number, and no unit.

What does the record list as normalized growth for "CC(=O)CCCCn1c(=O)c2c(ncn2C)n(C)c1=O" ? 1

Recorded normalized growth for "O=c1c(O)cccc2cc(O)c(O)c(O)c12" , please? 0.754

Recorded normalized growth of "O=c1c(O)c(-c2ccccc2)oc2cc(O)ccc12" , please. 0.337

Now, please, on to the next compound.
Name the recorded normalized growth for "CN1CCC[C@H]1c1cccnc1" . 1.02
